- Tested on: TGF-β receptors
- experimentalProtocol: Inhibition of specific binding of 125I-TGF-β3 to TGF-β receptors in mink lung epithelial cells
- conditionParameters: 0.1 nM 125I-TGF-β3, 2.5 hr at 0° C.; read-out: IC50 for inhibiting 125I-TGF-β3 binding to TGF-β receptors
- Protocol: Specific binding of ^125I-labeled TGF-β1, TGF-β2, and TGF-β3 (^125I-TGF-β1, ^125I-TGF-β2, and ^125I-TGF-β3) to TGF-β receptors in mink lung epithelial cells. ^125I-TGF-β1, ^125I-TGF-β2, and ^125I-TGF-β3 were prepared by iodination of TGF-β1, TGF-β2, and TGF-β3 with Na^125I as described previously (Ref. 7). […] After 2.5 hr at 0° C., the cells were washed two times with binding buffer, and the cell-associated radioactivity was determined. […]
quantity: IC50

>  <chainSequence>
ANFCAGACPYLWSSDTQHSRVLSLY [peptide β2^25 (41-65)]

>  <quantity>
IC50

>  <endpointResult>
~80 nM

$$$$

The origin of these recorded values is patent US7723473B2.
